SYSTEM_NAME: rat collagen type I (Rattus norvegicus, UniProt P02454+P02466)
Construct: Rat collagen (acid soluble, type I, rat tail); purchased Upstate USA, Inc 08-115; host or cells: rat tail (tissue extract)
Sequence (P02454 152-1207 limits assumed): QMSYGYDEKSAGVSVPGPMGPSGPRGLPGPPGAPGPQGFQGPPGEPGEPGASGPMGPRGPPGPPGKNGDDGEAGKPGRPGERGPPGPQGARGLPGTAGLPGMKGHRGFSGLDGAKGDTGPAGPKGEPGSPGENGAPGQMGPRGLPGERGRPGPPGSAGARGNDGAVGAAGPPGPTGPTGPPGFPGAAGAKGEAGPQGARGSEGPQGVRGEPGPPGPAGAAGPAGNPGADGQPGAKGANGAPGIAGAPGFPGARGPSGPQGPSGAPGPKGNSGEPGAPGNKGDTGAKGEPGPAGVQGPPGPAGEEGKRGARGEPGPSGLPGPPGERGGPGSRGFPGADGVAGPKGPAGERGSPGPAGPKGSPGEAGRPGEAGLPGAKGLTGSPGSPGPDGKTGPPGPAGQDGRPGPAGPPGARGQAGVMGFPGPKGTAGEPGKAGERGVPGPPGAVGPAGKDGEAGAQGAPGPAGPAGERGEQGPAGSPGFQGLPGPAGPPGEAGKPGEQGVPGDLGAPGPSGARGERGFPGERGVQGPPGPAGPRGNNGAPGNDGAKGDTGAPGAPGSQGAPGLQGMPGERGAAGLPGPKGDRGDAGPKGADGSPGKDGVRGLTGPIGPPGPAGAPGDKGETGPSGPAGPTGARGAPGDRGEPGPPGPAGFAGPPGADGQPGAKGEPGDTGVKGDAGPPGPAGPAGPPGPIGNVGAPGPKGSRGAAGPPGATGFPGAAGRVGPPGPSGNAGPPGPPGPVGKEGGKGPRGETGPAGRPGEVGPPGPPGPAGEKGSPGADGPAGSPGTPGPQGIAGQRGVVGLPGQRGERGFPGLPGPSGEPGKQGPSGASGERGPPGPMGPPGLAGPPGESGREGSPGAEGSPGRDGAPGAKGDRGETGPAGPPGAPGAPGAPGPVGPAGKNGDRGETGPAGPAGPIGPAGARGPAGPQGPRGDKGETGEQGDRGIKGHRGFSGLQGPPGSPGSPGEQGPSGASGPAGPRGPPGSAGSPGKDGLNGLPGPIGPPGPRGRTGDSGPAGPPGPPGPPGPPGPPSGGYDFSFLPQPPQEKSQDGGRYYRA
Sequence (P02466 86-1125 limits assumed): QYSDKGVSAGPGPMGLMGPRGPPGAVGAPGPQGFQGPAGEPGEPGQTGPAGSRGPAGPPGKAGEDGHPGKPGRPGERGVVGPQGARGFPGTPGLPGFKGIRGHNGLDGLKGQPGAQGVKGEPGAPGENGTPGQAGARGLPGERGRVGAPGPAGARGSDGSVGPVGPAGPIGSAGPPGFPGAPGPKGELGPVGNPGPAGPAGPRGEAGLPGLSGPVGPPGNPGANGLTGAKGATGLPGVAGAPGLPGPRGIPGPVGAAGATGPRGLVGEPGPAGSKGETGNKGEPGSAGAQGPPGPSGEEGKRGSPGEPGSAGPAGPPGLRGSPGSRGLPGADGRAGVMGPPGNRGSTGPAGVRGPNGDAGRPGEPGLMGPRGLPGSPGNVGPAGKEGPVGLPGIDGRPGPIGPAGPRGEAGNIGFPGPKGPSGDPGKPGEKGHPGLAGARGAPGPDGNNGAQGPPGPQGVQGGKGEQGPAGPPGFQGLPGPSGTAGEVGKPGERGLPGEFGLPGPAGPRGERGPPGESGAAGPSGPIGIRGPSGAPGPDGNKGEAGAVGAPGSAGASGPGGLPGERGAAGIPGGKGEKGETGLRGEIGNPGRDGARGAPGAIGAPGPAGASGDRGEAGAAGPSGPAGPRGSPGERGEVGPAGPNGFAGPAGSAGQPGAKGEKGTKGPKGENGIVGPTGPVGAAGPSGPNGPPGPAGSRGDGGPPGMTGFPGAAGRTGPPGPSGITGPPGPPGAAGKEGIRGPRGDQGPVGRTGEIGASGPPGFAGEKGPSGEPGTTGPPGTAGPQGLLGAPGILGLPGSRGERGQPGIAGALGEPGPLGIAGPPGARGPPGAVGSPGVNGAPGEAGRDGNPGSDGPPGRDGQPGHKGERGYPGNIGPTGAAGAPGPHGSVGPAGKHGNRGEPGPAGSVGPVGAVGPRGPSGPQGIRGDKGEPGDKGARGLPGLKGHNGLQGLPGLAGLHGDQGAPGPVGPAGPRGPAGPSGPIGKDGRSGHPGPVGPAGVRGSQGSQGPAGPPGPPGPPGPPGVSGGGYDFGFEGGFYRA
TEST_METHOD_NOTES: Dried collagen assay (DCA), percent bound to dried rat collagen
Assay type: binding
ASSAY_CONTEXT: Table 15, TN-10 peptides with -G- linker, D-amino acid scanning
Each record here notes measured % Collagen Binding Dried Rat.
Your answer is read as %, so omit the unit and give the number.

166 (QWTCSGDEYTWHCNYE) [compound 166]: 3
175 (QWTCSGDEYTWHCNYE) [compound 175]: 2
169 (QWTCSGDEYTWHCNYE) [compound 169]: 4
165 (QWTCSGDEYTWHCNYE) [compound 165]: 4
176 (QWTCSGDEYTWHCNYE) [compound 176]: 2

Record 171 (QWTCSGDEYTWHCNYE) [compound 171] ; system rat collagen type I (Rattus norvegicus, UniProt P02454+P02466); % Collagen Binding Dried Rat = 6

Let me check: 168 (QWTCSGDEYTWHCNYE) [compound 168] , system rat collagen type I (Rattus norvegicus, UniProt P02454+P02466), measured % Collagen Binding Dried Rat is 2

Item 173 (QWTCSGDEYTWHCNYE) [compound 173] was tested on rat collagen type I (Rattus norvegicus, UniProt P02454+P02466); the reported % Collagen Binding Dried Rat is 4
